Origin of values: patent US20250154261A1

# pKd listing for each entry below
Molecular target: Human CD33 R69G (human, UniProt P20138 18-259)
Sequence (P20138 18-259 R69G): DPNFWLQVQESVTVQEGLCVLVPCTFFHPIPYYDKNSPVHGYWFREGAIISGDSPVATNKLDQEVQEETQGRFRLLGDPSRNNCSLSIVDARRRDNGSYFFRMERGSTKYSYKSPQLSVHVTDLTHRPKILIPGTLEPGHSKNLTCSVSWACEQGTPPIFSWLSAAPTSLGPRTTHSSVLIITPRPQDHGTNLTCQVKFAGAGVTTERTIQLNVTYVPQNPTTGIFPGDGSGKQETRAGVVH
Assay: SPR captured Fab
Recall that pKd is obtained by taking minus log10 of the concentration measured in molar.

binder: ADI-11826 Fab (Fab, V domains shown, Fab fragment; also called Ab26) VH: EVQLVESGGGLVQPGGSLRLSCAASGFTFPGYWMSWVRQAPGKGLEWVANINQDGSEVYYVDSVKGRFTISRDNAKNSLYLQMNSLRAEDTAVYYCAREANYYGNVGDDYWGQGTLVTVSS VL: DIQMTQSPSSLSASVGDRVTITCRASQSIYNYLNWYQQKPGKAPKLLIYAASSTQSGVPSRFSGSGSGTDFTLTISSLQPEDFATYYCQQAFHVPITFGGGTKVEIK
pKd: 8.42

binder: ADI-11815 Fab (Fab, V domains shown, Fab fragment; also called Ab7) VH: QVQLVQSGAEVKKPGASVKVSCKASGYTFGTYYMHWVRQAPGQGLEWMGIINPSRGSTVYAQKFQGRVTMTRDTSTSTVYMELSSLRSEDTAVYYCARGAGYDDEDMDVWGKGTTVTVSS VL: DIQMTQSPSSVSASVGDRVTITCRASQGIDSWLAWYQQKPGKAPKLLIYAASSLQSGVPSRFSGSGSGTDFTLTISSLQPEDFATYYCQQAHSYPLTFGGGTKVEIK
pKd: 8.36

binder: ADI-11825 Fab (Fab, V domains shown, Fab fragment; also called Ab25) VH: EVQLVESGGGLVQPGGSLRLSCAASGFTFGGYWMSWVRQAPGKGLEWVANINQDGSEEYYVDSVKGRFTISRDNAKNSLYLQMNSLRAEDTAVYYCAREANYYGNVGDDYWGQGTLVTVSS VL: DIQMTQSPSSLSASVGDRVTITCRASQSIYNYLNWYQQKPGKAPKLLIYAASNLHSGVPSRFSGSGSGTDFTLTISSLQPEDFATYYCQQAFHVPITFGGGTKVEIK
pKd: 8.43

Tell me the measured pKd of ADI-11776 Fab (Fab, V domains shown, Fab fragment; also called Ab3; H76) VH: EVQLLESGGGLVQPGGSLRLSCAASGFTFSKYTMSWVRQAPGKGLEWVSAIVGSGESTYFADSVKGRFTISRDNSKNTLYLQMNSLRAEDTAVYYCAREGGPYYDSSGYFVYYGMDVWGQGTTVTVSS VL: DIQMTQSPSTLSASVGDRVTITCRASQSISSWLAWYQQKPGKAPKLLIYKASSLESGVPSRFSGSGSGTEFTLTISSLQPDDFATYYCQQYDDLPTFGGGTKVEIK , please.
9.66

Same thing, different binder: ADI-11807 Fab (Fab, V domains shown, Fab fragment; also called Ab5; I07) VH: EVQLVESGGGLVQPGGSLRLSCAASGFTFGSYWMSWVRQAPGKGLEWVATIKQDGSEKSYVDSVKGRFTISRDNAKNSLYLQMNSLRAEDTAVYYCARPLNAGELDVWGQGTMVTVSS VL: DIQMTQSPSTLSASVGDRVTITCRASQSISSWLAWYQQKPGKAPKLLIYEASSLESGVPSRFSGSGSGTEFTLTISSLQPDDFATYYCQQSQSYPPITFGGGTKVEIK
9.37
